Target: Adenosine receptor A3 (Homo sapiens, UniProt P0DMS8)
pKi: −log10 of the molar value.
Note to self: values exactly at 7 are true. So pKi at or above 7 is true, below is false.

smiles.entry: O=C(Nc1nc2ccccc2c2cn(-c3ccccc3)nc12)c1ccncn1
assigned.label: false
//
smiles.entry: O=c1[nH]c2ccccc2c2cn(-c3ccc(C(F)(F)F)cc3)nc12
assigned.label: false
//
smiles.entry: O=C(Nc1nc2ccccc2c2cn(-c3ccccc3)nc12)c1cscn1
assigned.label: true
//
smiles.entry: O=C(Nc1nc2ccccc2c2cn(-c3ccccc3)nc12)c1ccccn1
assigned.label: true
//
smiles.entry: O=C(Nc1nc2ccccc2c2cn(-c3ccccc3)nc12)c1ncccn1
assigned.label: false
//
smiles.entry: O=C(Nc1nc2ccccc2c2cn(-c3ccccc3)nc12)c1cccc(C(F)(F)F)c1
assigned.label: true
//
smiles.entry: O=C(Nc1nc2ccccc2c2cn(-c3ccccc3)nc12)c1ccoc1
assigned.label: true
//
smiles.entry: Cc1ccc(C(=O)Nc2nc3ccccc3c3cn(-c4ccccc4)nc23)o1
assigned.label: true
//
smiles.entry: O=C(Nc1nc2ccccc2c2cn(-c3ccccc3)nc12)c1ccco1
assigned.label: true

----------
Target: Adenosine receptor A1 (Homo sapiens)
Sequence (whole entry): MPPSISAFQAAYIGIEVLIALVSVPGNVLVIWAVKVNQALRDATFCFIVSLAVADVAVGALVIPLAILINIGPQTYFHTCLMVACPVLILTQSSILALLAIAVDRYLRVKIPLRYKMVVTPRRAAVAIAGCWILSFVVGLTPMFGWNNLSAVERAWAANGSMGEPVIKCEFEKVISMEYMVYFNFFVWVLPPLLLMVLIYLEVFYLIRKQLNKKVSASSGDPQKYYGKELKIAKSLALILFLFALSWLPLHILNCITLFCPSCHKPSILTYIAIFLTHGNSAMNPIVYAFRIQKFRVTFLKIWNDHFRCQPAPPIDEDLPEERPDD
Test: Displacement of [3H]DPCPX from human adenosine A1 receptor expressed in CHO cells at 1 uM by scintillation counting
Format: cell-based
Grouping by measured inhibition is done with the following cut points: low bracket: < 4%; middle bracket: ≥ 4% and < 9%; high bracket: ≥ 9%

smiles.entry: O=C(Nc1nc2ccccc2c2cn(-c3ccccc3)nc12)c1cnccn1
assigned.label: middle bracket

smiles.entry: O=C(Nc1nc2ccccc2c2cn(-c3ccccc3)nc12)c1ccccc1
assigned.label: low bracket

smiles.entry: O=C(Nc1nc2ccccc2c2cn(-c3ccc(C(F)(F)F)cc3)nc12)c1ccccc1
assigned.label: high bracket

smiles.entry: O=C(Nc1nc2ccccc2c2cn(-c3ccccc3)nc12)c1ncccn1
assigned.label: middle bracket

smiles.entry: O=C(Nc1nc2ccccc2c2cn(-c3ccccc3)nc12)c1cscn1
assigned.label: high bracket

smiles.entry: Cc1ccc(C(=O)Nc2nc3ccccc3c3cn(-c4ccccc4)nc23)cc1
assigned.label: middle bracket

smiles.entry: O=C(Nc1nc2ccccc2c2cn(-c3ccccc3)nc12)c1cccc(C(F)(F)F)c1
assigned.label: high bracket

smiles.entry: Nc1nc2ccccc2c2cn(-c3ccc(C(F)(F)F)cc3)nc12
assigned.label: low bracket

smiles.entry: Cc1cccc(C(=O)Nc2nc3ccccc3c3cn(-c4ccccc4)nc23)c1
assigned.label: high bracket

smiles.entry: O=c1[nH]c2ccccc2c2cn(-c3cccc(C(F)(F)F)c3)nc12
assigned.label: low bracket

smiles.entry: O=C(Nc1nc2ccccc2c2cn(-c3ccccc3)nc12)c1ccccn1
assigned.label: low bracket

smiles.entry: O=C(Nc1nc2ccccc2c2cn(-c3ccccc3)nc12)c1cccs1
assigned.label: high bracket

smiles.entry: O=C(Nc1nc2ccccc2c2cn(-c3ccc(Cl)cc3)nc12)c1ccco1
assigned.label: high bracket

smiles.entry: O=C(Nc1nc2ccccc2c2cn(-c3ccccc3)nc12)c1ccncc1
assigned.label: middle bracket

smiles.entry: O=c1[nH]c2ccccc2c2cn(-c3ccc(C(F)(F)F)cc3)nc12
assigned.label: middle bracket

smiles.entry: Nc1nc2ccccc2c2cn(-c3cccc(C(F)(F)F)c3)nc12
assigned.label: middle bracket

smiles.entry: O=C(Nc1nc2ccccc2c2cn(-c3ccccc3)nc12)c1ccsc1
assigned.label: low bracket

smiles.entry: O=C(c1ccccc1)N(C(=O)c1ccccc1)c1nc2ccccc2c2cn(-c3ccccc3)nc12
assigned.label: low bracket

----------
Target: Adenosine receptor A2b (Homo sapiens) (UniProt P29275)
Sequence (P29275 whole entry): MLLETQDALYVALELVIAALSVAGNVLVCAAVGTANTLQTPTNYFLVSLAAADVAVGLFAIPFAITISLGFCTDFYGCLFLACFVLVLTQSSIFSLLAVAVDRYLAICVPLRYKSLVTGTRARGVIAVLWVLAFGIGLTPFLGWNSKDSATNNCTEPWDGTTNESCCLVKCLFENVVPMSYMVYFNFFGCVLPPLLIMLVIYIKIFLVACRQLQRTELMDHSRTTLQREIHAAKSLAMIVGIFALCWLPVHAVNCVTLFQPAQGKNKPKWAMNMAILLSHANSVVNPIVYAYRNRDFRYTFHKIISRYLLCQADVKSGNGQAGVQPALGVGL
Test: Antagonist activity at human adenosine A2B receptor expressed in CHO cells assessed as inhibition of NECA-induced cAMP accumulation at 1 uM
Assay type: functional, cell-based
Below: a set of entries, each annotated with reported inhibition.
measured.parameter: inhibition (%)

smiles.entry: Nc1nc2ccccc2c2cn(-c3ccc(C(F)(F)F)cc3)nc12
result.units: %
measured.number: 11
--
smiles.entry: O=C(c1ccc(C(F)(F)F)cc1)N(C(=O)c1ccc(C(F)(F)F)cc1)c1nc2ccccc2c2cn(-c3ccccc3)nc12
result.units: %
measured.number: 1
--
smiles.entry: O=C(Nc1nc2ccccc2c2cn(-c3ccccc3)nc12)c1ccccn1
result.units: %
measured.number: 15
--
smiles.entry: O=C(Nc1nc2ccccc2c2cn(-c3ccccc3)nc12)c1ccncc1
result.units: %
measured.number: 1
--
smiles.entry: O=c1[nH]c2ccccc2c2cn(-c3cccc(C(F)(F)F)c3)nc12
result.units: %
measured.number: 3

----------
Molecular target: Adenosine receptor A3 (Homo sapiens)
Sequence (whole entry): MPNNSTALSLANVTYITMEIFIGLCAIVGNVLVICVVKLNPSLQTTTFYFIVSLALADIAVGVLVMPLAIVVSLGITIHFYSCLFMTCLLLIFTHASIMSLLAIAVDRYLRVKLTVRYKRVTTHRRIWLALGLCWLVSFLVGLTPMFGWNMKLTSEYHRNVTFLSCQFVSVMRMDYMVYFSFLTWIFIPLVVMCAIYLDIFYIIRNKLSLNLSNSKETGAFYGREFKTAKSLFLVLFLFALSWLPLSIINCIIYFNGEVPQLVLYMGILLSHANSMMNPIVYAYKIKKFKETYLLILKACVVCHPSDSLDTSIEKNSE
Assay: Displacement of [125I]AB-MECA from human adenosine A3 receptor expressed in CHO cells by scintillation counting
Format: cell-based
Design: concentration or dose not given beside the values
Conditions: concentration not given here
Note to self: values exactly at 20% are satisfied. So inhibition at or above 20% is satisfied, below is not satisfied.

smiles.entry: O=C(c1cccc(C(F)(F)F)c1)N(C(=O)c1cccc(C(F)(F)F)c1)c1nc2ccccc2c2cn(-c3ccccc3)nc12
assay.target: Adenosine receptor A3 (Homo sapiens)
assigned.label: satisfied

smiles.entry: Nc1nc2ccccc2c2cn(-c3ccc(C(F)(F)F)cc3)nc12
assay.target: Adenosine receptor A3 (Homo sapiens)
assigned.label: not satisfied

smiles.entry: Nc1nc2ccccc2c2cn(-c3cccc(C(F)(F)F)c3)nc12
assay.target: Adenosine receptor A3 (Homo sapiens)
assigned.label: satisfied

smiles.entry: O=c1[nH]c2ccccc2c2cn(-c3cccc(C(F)(F)F)c3)nc12
assay.target: Adenosine receptor A3 (Homo sapiens)
assigned.label: not satisfied

smiles.entry: O=C(c1ccc(C(F)(F)F)cc1)N(C(=O)c1ccc(C(F)(F)F)cc1)c1nc2ccccc2c2cn(-c3ccccc3)nc12
assay.target: Adenosine receptor A3 (Homo sapiens)
assigned.label: satisfied

----------
Target: Adenosine receptor A1 (Homo sapiens)
Experiment: Displacement of [3H]DPCPX from human adenosine A1 receptor expressed in CHO cells at 1 uM by scintillation counting
Assay type: cell-based
Below: a set of entries, each annotated with reported inhibition.
measured.parameter: inhibition (%)

smiles.entry: O=C(c1ccc(C(F)(F)F)cc1)N(C(=O)c1ccc(C(F)(F)F)cc1)c1nc2ccccc2c2cn(-c3ccccc3)nc12
assay.target: Adenosine receptor A1 (Homo sapiens)
measured.parameter: inhibition
measured.number: 17

smiles.entry: O=C(Nc1nc2ccccc2c2cn(-c3ccccc3)nc12)c1ccc(C(F)(F)F)cc1
assay.target: Adenosine receptor A1 (Homo sapiens)
measured.parameter: inhibition
measured.number: 10

smiles.entry: O=C(Nc1nc2ccccc2c2cn(-c3ccccc3)nc12)c1ccco1
assay.target: Adenosine receptor A1 (Homo sapiens)
measured.parameter: inhibition
measured.number: 34

smiles.entry: O=C(Nc1nc2ccccc2c2cn(-c3ccccc3)nc12)c1ccoc1
assay.target: Adenosine receptor A1 (Homo sapiens)
measured.parameter: inhibition
measured.number: 9

smiles.entry: O=C(Nc1nc2ccccc2c2cn(-c3ccccc3)nc12)c1cccnc1
assay.target: Adenosine receptor A1 (Homo sapiens)
measured.parameter: inhibition
measured.number: 26

smiles.entry: O=C(Nc1nc2ccccc2c2cn(-c3cccc(C(F)(F)F)c3)nc12)c1ccccc1
assay.target: Adenosine receptor A1 (Homo sapiens)
measured.parameter: inhibition
measured.number: 13

----------
Target: Adenosine receptor A3 (Homo sapiens)
Sequence (P0DMS8 whole entry): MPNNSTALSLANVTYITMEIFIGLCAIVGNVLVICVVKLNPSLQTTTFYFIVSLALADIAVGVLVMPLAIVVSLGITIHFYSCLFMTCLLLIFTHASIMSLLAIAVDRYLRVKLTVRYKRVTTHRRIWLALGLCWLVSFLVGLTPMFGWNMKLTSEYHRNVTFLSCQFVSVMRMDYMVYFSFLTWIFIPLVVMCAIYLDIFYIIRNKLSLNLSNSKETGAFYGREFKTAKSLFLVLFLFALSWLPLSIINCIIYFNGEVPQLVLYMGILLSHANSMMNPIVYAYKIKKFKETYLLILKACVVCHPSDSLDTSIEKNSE
Test: Antagonist activity at human adenosine A3 receptor expressed in CHO cells assessed as inhibition of CI-IB-MECA-mediated inhibition of cAMP accumulation by competition protein binding assay
pIC50: −log10 of the molar value.
Below: a set of entries, each annotated with reported pIC50.
measured.parameter: pIC50

smiles.entry: O=C(Nc1nc2ccccc2c2cn(-c3ccccc3)nc12)c1ccccn1
assay.target: Adenosine receptor A3 (Homo sapiens)
measured.number: 6.97

smiles.entry: Cc1cccc(C(=O)Nc2nc3ccccc3c3cn(-c4ccccc4)nc23)c1
assay.target: Adenosine receptor A3 (Homo sapiens)
measured.number: 7.59

smiles.entry: O=C(Nc1nc2ccccc2c2cn(-c3ccccc3)nc12)c1ccco1
assay.target: Adenosine receptor A3 (Homo sapiens)
measured.number: 7.68

smiles.entry: O=C(Nc1nc2ccccc2c2cn(-c3ccccc3)nc12)c1ccncc1
assay.target: Adenosine receptor A3 (Homo sapiens)
measured.number: 7.39

smiles.entry: O=C(Nc1nc2ccccc2c2cn(-c3ccc(Cl)cc3)nc12)c1ccco1
assay.target: Adenosine receptor A3 (Homo sapiens)
measured.number: 7.08

Each recorded value in this set is attributed to ChEMBL document CHEMBL1152204.
